Entry source: paper PMC3136501

Target: UniProt:O15245
Sequence (O15245 1-554): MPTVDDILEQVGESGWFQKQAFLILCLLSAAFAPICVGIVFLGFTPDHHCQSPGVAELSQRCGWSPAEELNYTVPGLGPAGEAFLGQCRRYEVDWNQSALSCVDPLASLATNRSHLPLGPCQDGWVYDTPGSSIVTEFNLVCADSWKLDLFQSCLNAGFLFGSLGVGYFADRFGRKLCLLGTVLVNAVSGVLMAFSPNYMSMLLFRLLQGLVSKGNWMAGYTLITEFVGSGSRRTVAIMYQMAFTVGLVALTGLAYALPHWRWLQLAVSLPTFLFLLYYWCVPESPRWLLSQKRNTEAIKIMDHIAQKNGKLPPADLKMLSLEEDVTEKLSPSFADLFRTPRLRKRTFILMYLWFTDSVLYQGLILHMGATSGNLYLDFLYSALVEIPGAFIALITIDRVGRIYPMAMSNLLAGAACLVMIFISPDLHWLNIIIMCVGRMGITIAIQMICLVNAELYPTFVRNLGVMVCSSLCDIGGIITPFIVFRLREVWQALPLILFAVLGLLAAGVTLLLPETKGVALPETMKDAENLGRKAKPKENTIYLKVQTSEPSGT
Assay: Inhibition of OCT1-mediated metformin uptake in stably transfected HEK cells
Type: cell-based
Conditions: 5 µM [14C]metformin uptake, 5 min, HEK-OCT1, means ± SE of 3 experiments
Please note: IC50 exactly at 30 µM is no (0). Only values below 30 µM get yes (1).

Please state whether IC50 is below 30 µM for COCCCOc1ccnc(C[S+]([O-])c2nc3ccccc3[nH]2)c1C (centres unmarked) yes (1)

Hi there! Is IC50 for Cc1c(OCC(F)(F)F)ccnc1C[S+]([O-])c1nc2ccccc2[nH]1 (centres unmarked) below 30 µM, do you know? no (0)

Would you kindly verify if IC50 of COc1ccc2[nH]c([S+]([O-])Cc3ncc(C)c(OC)c3C)nc2c1 (centres unmarked) is strictly less than 30 µM? yes (1)

Lab note: confirm whether the reported IC50 for this compound is below 30 µM, equality not counting. compound: COc1ccc2[nH]c([S+]([O-])Cc3ncc(C)c(OC)c3C)nc2n1 (centres unmarked) yes (1)

====

Below is a list of entries, each paired with its recorded IC50 value.
Molecular target: human OCT2 (Homo sapiens)
Construct: OCT2: NP_003049.2
Sequence (O15244 whole entry): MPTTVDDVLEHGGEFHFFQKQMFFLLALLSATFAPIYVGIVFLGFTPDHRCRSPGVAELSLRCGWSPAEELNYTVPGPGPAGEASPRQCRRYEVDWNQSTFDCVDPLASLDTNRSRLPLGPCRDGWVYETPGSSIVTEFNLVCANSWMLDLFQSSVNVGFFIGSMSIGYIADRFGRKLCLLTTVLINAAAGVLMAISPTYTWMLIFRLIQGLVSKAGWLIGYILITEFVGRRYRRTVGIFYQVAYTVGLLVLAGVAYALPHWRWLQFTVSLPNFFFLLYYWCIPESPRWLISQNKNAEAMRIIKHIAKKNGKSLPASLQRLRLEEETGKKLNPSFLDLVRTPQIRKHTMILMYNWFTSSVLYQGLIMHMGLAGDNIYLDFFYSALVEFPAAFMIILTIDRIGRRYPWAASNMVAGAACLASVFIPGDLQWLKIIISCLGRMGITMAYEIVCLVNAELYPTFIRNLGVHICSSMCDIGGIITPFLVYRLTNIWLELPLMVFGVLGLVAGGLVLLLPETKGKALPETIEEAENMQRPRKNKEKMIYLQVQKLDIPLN
Assay: Inhibition of OCT2-mediated metformin uptake in stably transfected HEK cells
Conditions: 5 µM [14C]metformin uptake, 5 sec, HEK-OCT2, means ± SE of 3 experiments
Description: SLC22A1 cDNA and SLC22A2 cDNA had been PCR-amplified from human liver and kidney, respectively, as reported elsewhere and cDNAs were provided by the German Cancer Research Center; the study and the use of the tissue were approved by the institutional review board of the German Cancer Center, Heidelberg, Germany. Since the data were analyzed anonymously, and tissues were left-over samples from diagnostic procedures, written informed consent had not been required and obtained. […]
Quick reminder: number only, in µM, skip the unit.

In [3]: df
Out[3]:
                                   compound  measurement_name  measured_value
0  COCCCOc1ccnc(C[S+]([O-])c2nc3ccccc3[nH]2)c1C (centres unmarked) [Rabeprazole]              IC50             5.7
1  COc1ccc2[nH]c([S+]([O-])Cc3ncc(C)c(OC)c3C)nc2n1 (centres unmarked) [Tenatoprazole]              IC50            20.3
2  Cc1c(OCC(F)(F)F)ccnc1C[S+]([O-])c1nc2ccccc2[nH]1 (centres unmarked) [Lansoprazole]              IC50             9.5
3  COc1ccnc(C[S+]([O-])c2nc3ccc(OC(F)F)cc3[nH]2)c1OC (centres unmarked) [Pantoprazole]              IC50             2.8

// recorded IC50 for COc1ccc2[nH]c([S+]([O-])Cc3ncc(C)c(OC)c3C)nc2c1 (centres unmarked) [Omeprazole] : 6.7
